The values you see were collected from ChEMBL document CHEMBL1157150.

- Test system: Bacillus subtilis
- measurement_protocol: microbe, parasite or virus in culture
- Type: functional
- condition_details: ATCC 6633
- Description: Antibacterial activity against Bacillus subtilis ATCC 6633
Recorded MIC, one value per entry.

>  <molecule>
CC1=NN(/C(C)=N\OC(=O)c2ccc(F)cc2)C(c2ccccc2OCc2ccc(F)cc2)C1 (centres undefined)

>  <MIC>
> 50 µg/mL

$$$$
>  <molecule>
CC1=NN2C(C1)c1ccccc1CC2(C)C (centres undefined)

>  <MIC>
1.25 µg/mL

$$$$
>  <molecule>
COC1CC(c2ccccc2)=NN1/C(C)=N\OC(=O)c1ccccc1[N+](=O)[O-] (centres undefined)

>  <MIC>
6.25 µg/mL

$$$$
>  <molecule>
CC1=NN(/C(C)=N\OC(=O)c2ccc(Cl)cc2Cl)C(c2ccc(OCc3ccc(F)cc3)cc2)C1 (centres undefined)

>  <MIC>
12.5 µg/mL

$$$$
>  <molecule>
C/C(=N/OC(=O)c1ccc(C(F)(F)F)cc1)N1N=C(c2ccc(Cl)cc2Cl)CC1c1ccccc1F (centres undefined)

>  <MIC>
12.5 µg/mL

$$$$
>  <molecule>
COC1CC(c2ccccc2)=NN1/C(C)=N\OC(=O)/C=C/c1ccccc1 (centres undefined)

>  <MIC>
1.56 µg/mL

$$$$
>  <molecule>
C/C(=N/OC(=O)c1ccc(Cl)cc1)N1N=C(c2ccc(Cl)cc2Cl)CC1c1ccccc1F (centres undefined)

>  <MIC>
12.5 µg/mL

$$$$
>  <molecule>
CCC(=O)O/N=C(/C)N1N=C(C)CC1c1ccccc1OCc1ccc(F)cc1 (centres undefined)

>  <MIC>
50 µg/mL

$$$$
>  <molecule>
COC1CC(c2ccccc2)=NN1/C(C)=N\OC(=O)c1ccc(C(F)(F)F)cc1 (centres undefined)

>  <MIC>
1.56 µg/mL

$$$$
>  <molecule>
CCC(=O)O/N=C(/C)N1N=C(c2ccc(Cl)cc2Cl)CC1c1ccc(C(F)(F)F)cc1 (centres undefined)

>  <MIC>
50 µg/mL

$$$$
>  <molecule>
CC1=NN(/C(C)=N\OC(=O)c2ccc(C(F)(F)F)cc2)C(c2ccc(OCc3ccc(F)cc3)cc2)C1 (centres undefined)

>  <MIC>
25 µg/mL

$$$$
>  <molecule>
C/C(=N/OC(=O)/C=C/c1ccccc1)N1N=C(c2ccc(Cl)cc2Cl)CC1c1ccccc1F (centres undefined)

>  <MIC>
6.25 µg/mL

$$$$
>  <molecule>
CC1=NN(/C(C)=N\OC(=O)c2ccc(F)cc2)C(c2ccc(OCc3ccc(F)cc3)cc2)C1 (centres undefined)

>  <MIC>
50 µg/mL

$$$$
>  <molecule>
C/C(=N/OC(=O)c1ccco1)N1N=C(c2ccc(Cl)cc2Cl)CC1c1ccc(C(F)(F)F)cc1 (centres undefined)

>  <MIC>
1.56 µg/mL

$$$$
>  <molecule>
C/C(=N/OC(=O)c1ccc(Cl)cc1)N1N=C(c2ccc(Cl)cc2Cl)CC1c1ccc(C(F)(F)F)cc1 (centres undefined)

>  <MIC>
12.5 µg/mL

$$$$
>  <molecule>
C/C(=N/OC(=O)/C=C/c1ccccc1)N1N=C(c2ccc(Cl)cc2Cl)CC1c1ccc(C(F)(F)F)cc1 (centres undefined)

>  <MIC>
1.56 µg/mL

$$$$
>  <molecule>
COC1CC(c2ccccc2)=NN1/C(C)=N\OC(=O)c1ccccc1C (centres undefined)

>  <MIC>
12.5 µg/mL

$$$$
>  <molecule>
CO[C@@H]1[C@@H](OC(N)=O)[C@@H](O)[C@H](Oc2ccc3c(O)c(NC(=O)c4ccc(O)c(CC=C(C)C)c4)c(=O)oc3c2C)OC1(C)C

>  <MIC>
0.78 µg/mL

$$$$
>  <molecule>
CC1=NN(/C(C)=N\OC(=O)c2ccccc2F)C(c2ccccc2OCc2ccc(F)cc2)C1 (centres undefined)

>  <MIC>
50 µg/mL

$$$$
>  <molecule>
CCC(=O)O/N=C(/C)N1N=C(C)CC1c1ccc(OCc2ccc(F)cc2)cc1 (centres undefined)

>  <MIC>
50 µg/mL

$$$$
>  <molecule>
C=CC(=O)O/N=C(/C)N1N=C(C)CC1c1ccc(OCc2ccc(F)cc2)cc1 (centres undefined)

>  <MIC>
12.5 µg/mL

$$$$
>  <molecule>
NC[C@H]1O[C@H](O[C@H]2[C@H](O)[C@@H](O[C@H]3O[C@H](CO)[C@@H](O)[C@H](N)[C@H]3O)[C@H](N)C[C@@H]2N)[C@H](O)[C@@H](O)[C@@H]1O

>  <MIC>
0.39 µg/mL

$$$$
>  <molecule>
COC1CC(c2ccccc2)=NN1/C(C)=N\OC(=O)c1ccco1 (centres undefined)

>  <MIC>
0.78 µg/mL

$$$$
>  <molecule>
COC1CC(c2ccccc2)=NN1/C(C)=N\OC(=O)c1ccc(Cl)cc1 (centres undefined)

>  <MIC>
3.12 µg/mL

$$$$
